The values you see were collected from ChEMBL document CHEMBL5096223.

Biological target: Epidermal growth factor receptor (Homo sapiens, UniProt P00533, L858R/T790M)
Sequence (P00533 25-1210 T790M/L858R limits assumed): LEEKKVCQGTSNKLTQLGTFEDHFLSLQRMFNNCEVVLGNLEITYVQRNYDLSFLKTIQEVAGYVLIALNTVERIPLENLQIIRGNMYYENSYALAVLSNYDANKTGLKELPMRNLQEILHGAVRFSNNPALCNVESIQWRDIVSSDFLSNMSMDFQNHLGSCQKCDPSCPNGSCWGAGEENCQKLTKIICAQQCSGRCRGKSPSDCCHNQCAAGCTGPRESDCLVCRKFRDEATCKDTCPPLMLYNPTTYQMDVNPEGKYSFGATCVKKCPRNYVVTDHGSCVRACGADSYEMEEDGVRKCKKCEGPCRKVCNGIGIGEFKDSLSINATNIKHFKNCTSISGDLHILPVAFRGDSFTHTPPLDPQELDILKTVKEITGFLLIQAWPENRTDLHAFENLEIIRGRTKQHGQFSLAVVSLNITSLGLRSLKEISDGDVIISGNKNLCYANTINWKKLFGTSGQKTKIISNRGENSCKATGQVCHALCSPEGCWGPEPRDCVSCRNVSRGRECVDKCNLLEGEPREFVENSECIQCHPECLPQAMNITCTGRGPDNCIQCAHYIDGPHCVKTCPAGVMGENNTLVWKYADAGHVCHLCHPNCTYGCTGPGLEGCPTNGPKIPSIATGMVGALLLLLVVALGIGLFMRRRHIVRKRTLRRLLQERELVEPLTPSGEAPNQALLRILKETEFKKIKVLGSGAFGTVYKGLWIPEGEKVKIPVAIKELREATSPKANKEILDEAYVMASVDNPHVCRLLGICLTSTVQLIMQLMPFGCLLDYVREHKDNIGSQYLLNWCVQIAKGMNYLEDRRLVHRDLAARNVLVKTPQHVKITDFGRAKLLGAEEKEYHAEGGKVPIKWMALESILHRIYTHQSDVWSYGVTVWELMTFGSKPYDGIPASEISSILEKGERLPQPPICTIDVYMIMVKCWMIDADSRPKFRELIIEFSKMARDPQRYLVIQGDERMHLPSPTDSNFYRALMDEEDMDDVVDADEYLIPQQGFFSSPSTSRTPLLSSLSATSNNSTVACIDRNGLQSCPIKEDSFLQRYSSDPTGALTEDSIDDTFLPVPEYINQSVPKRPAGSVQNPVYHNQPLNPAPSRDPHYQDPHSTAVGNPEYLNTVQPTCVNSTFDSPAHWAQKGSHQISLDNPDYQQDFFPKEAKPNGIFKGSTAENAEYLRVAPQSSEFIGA
Experiment: Inhibition of N-terminal GST-tagged human recombinant EGFR T790M/L858R mutant (695 to end residues) expressed in baculovirus-infected Sf9 cells using poly (4:1 Glu,Tyr) peptide as substrate incubated for 60 mins in presence of ATP by ADP-Glo kinase assay
pIC50: −log10 of the molar value.
Think of 8 as a floor: if pIC50 stands on it or above, it is 1.0; beneath it, 0.0.

Below, 2 compounds whose answers are already recorded.
C=CC(=O)N1CCC(Oc2nc(Nc3ccc(N4CCN(C(C)=O)CC4)cc3OC)nc3[nH]ccc23)CC1 : 0.0
C=CC(=O)N1CCC(Oc2nc(Nc3cnn(C)c3)nc3[nH]ccc23)CC1 : 0.0

For the next question, use this compound.
Query block: Kindly determine if pIC50 recorded for C=CC(=O)N1CCC(Oc2nc(Nc3ccc(N4CCN(C)CC4)cc3)nc3ccsc23)CC1 is above or exactly 8.
Result block: 1.0
